Record form. Attribute: hERG current change (%, negative = inhibition) at 10uM. Fill in for each entry.
- test_target: human ether-à-go-go-related gene (hERG) potassium channel (human)
- test_summary: primary screen, population patch clamp on CHO cells stably expressing hERG; higher = less effect of the substance
Out of some 310,000 compounds screened, about 14,000 (4.5%) showed an effect of 50% or more. The effect is printed as a negative number. Only a selection was taken, and strong results are over-represented in it overall.
Numbers only, in %.

As a guide, the following entries are already answered.
CN1C2CCC1CC(OC(=O)c1ccc(Cl)cc1)C2.Cl (stereo not drawn)
-48.9
CN1[C@@H]2CC[C@H]1CC(OC(=O)c1c[nH]c3ccccc13)C2.Cl (stereo partly drawn)
-48.1
O=c1oc2cc([N+](=O)[O-])ccc2nc1/C=C(\O)c1cccc(Br)c1
4.15
O=C(Cn1c(=O)cnc2ccccc21)Nc1cccc(S(=O)(=O)N2CCCCC2)c1
-50.3
O=S(=O)(c1ccc(Cl)cc1)c1nc(-c2ccco2)oc1N1CCOCC1
-55.4
CCCCc1nc(S(=O)(=O)c2ccc(Cl)cc2)c(N2CCOCC2)o1
-69.6

// batch mode: one hERG current change (%, negative = inhibition) at 10uM value per listed entry
1. S=C(NCCc1ccccc1)N1CCN(C2CCCCC2)CC1
2. CC(NC(=O)c1cc(S(=O)(=O)N2CCCC2)ccc1Cl)c1ccccn1 (stereo not drawn)
3. NC(N)=N/N=C/c1c(Cl)cccc1Cl
4. COC(=O)c1ccccc1NC(=S)N1CCN(C2CCCCC2)CC1
5. Cc1ccc(S(=O)(=O)N2CCCCC2)cc1NC(=O)Cn1c(=O)cnc2ccccc21
6. CN1CCN(C(=S)NCCc2ccccc2)CC1.O=C(O)C(=O)O

1. -63.4
2. 18.1
3. -10.3
4. -22.4
5. 9.61
6. -14.5

----------
- test_target: human ether-à-go-go-related gene (hERG) potassium channel (human, UniProt Q12809);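 note: peak tail current of the secondary pulse compared with the same well before compound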
- Sequence (Q12809 whole entry, looked up): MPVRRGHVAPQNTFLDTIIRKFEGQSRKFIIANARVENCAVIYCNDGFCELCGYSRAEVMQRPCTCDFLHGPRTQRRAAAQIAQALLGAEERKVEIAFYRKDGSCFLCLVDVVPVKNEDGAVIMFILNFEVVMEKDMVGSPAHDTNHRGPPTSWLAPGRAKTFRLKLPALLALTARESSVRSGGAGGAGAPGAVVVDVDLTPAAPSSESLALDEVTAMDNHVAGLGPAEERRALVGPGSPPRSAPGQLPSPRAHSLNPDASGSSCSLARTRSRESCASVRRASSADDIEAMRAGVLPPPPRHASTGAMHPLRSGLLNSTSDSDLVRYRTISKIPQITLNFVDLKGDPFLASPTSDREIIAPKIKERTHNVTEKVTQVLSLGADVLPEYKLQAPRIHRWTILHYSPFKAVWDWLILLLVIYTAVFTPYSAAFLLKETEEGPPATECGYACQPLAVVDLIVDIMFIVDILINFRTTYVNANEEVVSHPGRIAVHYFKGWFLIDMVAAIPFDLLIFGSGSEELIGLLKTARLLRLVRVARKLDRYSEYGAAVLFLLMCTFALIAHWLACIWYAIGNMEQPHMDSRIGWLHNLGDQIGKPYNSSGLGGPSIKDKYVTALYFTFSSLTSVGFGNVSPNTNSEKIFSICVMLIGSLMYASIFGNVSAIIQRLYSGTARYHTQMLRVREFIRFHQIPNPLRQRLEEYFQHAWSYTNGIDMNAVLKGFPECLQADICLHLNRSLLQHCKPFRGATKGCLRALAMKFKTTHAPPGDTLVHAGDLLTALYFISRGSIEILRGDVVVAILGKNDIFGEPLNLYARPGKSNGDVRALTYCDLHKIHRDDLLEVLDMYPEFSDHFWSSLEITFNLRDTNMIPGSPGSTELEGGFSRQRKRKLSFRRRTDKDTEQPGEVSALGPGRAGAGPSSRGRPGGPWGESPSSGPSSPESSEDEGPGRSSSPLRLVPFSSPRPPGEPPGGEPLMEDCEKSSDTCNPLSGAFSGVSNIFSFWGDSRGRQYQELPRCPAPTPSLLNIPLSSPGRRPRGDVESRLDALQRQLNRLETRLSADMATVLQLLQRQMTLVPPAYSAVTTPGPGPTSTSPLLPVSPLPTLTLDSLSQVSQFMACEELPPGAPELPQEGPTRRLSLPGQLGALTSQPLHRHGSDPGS
- test_summary: primary screen, population patch clamp on CHO cells stably expressing hERG; higher = less effect of the substance
Screen size: about 310,000 compounds; about 14,000 (4.5%) showed an effect of 50% or more. Effects have a minus sign here. Shown is part of a subset that was picked to be rich in strong results.
Please go through the items and note down their hERG current change (%, negative = inhibition) at 10uM.

COc1ccc(-c2c(C(C)=O)c(C)nc3sc4c(=N)n(N)cnc4c23)cc1
3.48%
Cl.O=C(OCC1CCCN2CCCCC12)c1ccc2c(c1)OCO2 (stereo not drawn)
-22.8%
Cc1cc(C)c(C)c(S(=O)(=O)N2CCC(C(=O)NCC(c3ccccc3)N(C)C)CC2)c1C (stereo not drawn)
-48.9%
O=Cc1ccccc1-c1cn(CN2C(=O)c3ccccc3C2=O)nn1
3.42%

Each compound below has a recorded value; state its hERG current change (%, negative = inhibition) at 10uM.
1. C/C(=N\Nc1cc(N2CCOCC2)nc(C)n1)c1cccc([N+](=O)[O-])c1
2. CCOc1ccccc1N1CC(C(=O)N(C)Cc2cccnc2)CC1=O (stereo not drawn)
3. Cc1ccc(-n2nc(C)c3c(C)c(CCC(=O)Nc4ccc(CN5CCCC5)cc4)c(C)nc32)cc1
4. O=C(NC(=O)c1cccc(F)c1)OC[C@@H]1CCCN2CCCC[C@H]12
5. CCC(C)NC(=O)CCc1c(C)nc2c(c(C)nn2-c2ccccc2)c1C (stereo not drawn)
6. O=C(O)C(=O)O.O=S(=O)(c1cccc(C(F)(F)F)c1)N(CCCN1CCOCC1)Cc1cccs1
7. COc1ccc(-n2c(CN3CCN(C)CC3)nc3ccc([N+](=O)[O-])cc3c2=O)c(OC)c1

-60.4%
15%
-60.2%
-36.7%
-1.82%
-51%
-38.4%

----------
- test_target: human ether-à-go-go-related gene (hERG) potassium channel (human);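 note: peak tail current of the secondary pulse compared with the same well before compound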
- test_summary: primary screen, population patch clamp on CHO cells stably expressing hERG; higher = less effect of the substance
The campaign covered roughly 310,000 compounds. About 14,000 (4.5%) showed an effect of 50% or more. Effects have a minus sign here. For the sample, strong results were picked, then their nearest neighbours and some compounds at random.
endpoint_name: hERG current change (%, negative = inhibition) at 10uM (%)
Answers are plain numbers, in %.

Below: 5 compounds and their reported hERG current change (%, negative = inhibition) at 10uM.
CN1CCC(OC(=O)c2ccccc2)CC1.Cl
7.92
Cc1ccccc1CSc1nccn1-c1ccccc1
-8.94
CC(Cc1ccccc1Sc1ccccc1O)N(C)C.Cl (stereo not shown)
-18.9
CCc1ccc(NC2=CC(=O)CC(c3ccco3)C2)cc1 (stereo not shown)
5.49
CN(C)c1cc[n+](CC(=O)Nc2cc(C(F)(F)F)ccc2Cl)cc1.[Cl-]
7.63

The following compounds each have a reported value; give each one's hERG current change (%, negative = inhibition) at 10uM.
1. Cc1csc(SCC(=O)Nc2cc(S(=O)(=O)N3CCOCC3)ccc2N2CCOCC2)n1
2. CCN1CCN(CCCNC(=O)CCC(=O)N2CCOc3ccc(Cl)cc32)CC1
3. CN1CCC(Oc2ccc(Sc3ccccc3)cc2)CC1.Cl
4. C=CCc1cccc2cc(C(=O)N(CC)CC)c(=O)oc12
5. O=c1[nH]c(=O)n(Cc2ccco2)c(O)c1C=NCCCn1ccnc1

1. -45.8
2. -5.48
3. -67
4. -6.47
5. 16.3

----------
- test_target: human ether-à-go-go-related gene (hERG) potassium channel (human, UniProt Q12809);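 note: peak tail current of the secondary pulse compared with the same well before compound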
- test_summary: primary screen, population patch clamp on CHO cells stably expressing hERG; higher = less effect of the substance
About 14,000 (4.5%) of roughly 310,000 compounds showed an effect of 50% or more. Effects have a minus sign here. The full list was thinned out, with strong results kept by preference.
endpoint_name: hERG current change (%, negative = inhibition) at 10uM
Include the unit after the number when you answer.

Previously resolved entries follow.
COc1ccccc1C1c2ccc3ccccc3c2Oc2ncn(CCCO)c(=N)c21 (centres unmarked)
-66.6%
O=C(Nc1ccc([N+](=O)[O-])cc1)Nc1ccc2c(c1)OCCO2
24.6%
O=C(c1cccc([N+](=O)[O-])c1)c1ccc2c(c1)OCCOCCOCCOCCO2
-69.8%
COc1ccccc1OCC(O)CN1CCOCC1 (centres unmarked)
15.2%
O=C(N/N=C/c1cccc([N+](=O)[O-])c1)c1ccc2c(c1)OCCO2
7.63%
Cc1cc(C)nc(Nc2ncn[nH]2)n1
-73.3%
CC(C)(C)c1ccc(/C=N/NC(=O)C[n+]2ccccc2)cc1.[Cl-]
26%
COc1ccc(C(=O)Nc2cc(C)on2)cc1OC
10%
O=C(Nc1cccc([N+](=O)[O-])c1)c1ccc2c(c1)OCCO2
11.9%
O=[N+]([O-])c1ccc(S(=O)(=O)Nc2ccc3c(c2)OCCO3)cc1
3.95%

Let's switch to this compound now.
Under human ether-à-go-go-related gene (hERG) potassium channel (human, UniProt Q12809): hERG current change (%, negative = inhibition) at 10uM value of O=C(c1cccc([N+](=O)[O-])c1)c1ccc2c(c1)OCCOCCOCCO2 ?
-52.8%

----------
- test_target: human ether-à-go-go-related gene (hERG) potassium channel (human);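 note: peak tail current of the secondary pulse compared with the same well before compound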
- test_summary: primary screen, population patch clamp on CHO cells stably expressing hERG; higher = less effect of the substance
- Method: Briefly, Chinese hamster ovary (CHO) cells stably expressing the hERG channel were dislodged from tissue culture flasks and dispensed into PPC plates. […] During the recording, background leak currents were estimated by a 100 ms step to -80 mV from an initial holding potential of -70 mV and subtracted from the subsequent current measurement. The campaign was conducted in two phases using slight differences in recording protocol. […]
The whole screen tested about 310,000 compounds, of which about 14,000 (4.5%) showed an effect of 50% or more. The effect is printed as a negative number. This is one part of a sample in which strong results are shown more often than they occur.
endpoint_name: hERG current change (%, negative = inhibition) at 10uM (%)
Numbers only, in %.

Look over these answered cases.
COc1ccc(NC(=O)c2cccc(OC(F)F)c2)cc1Cl
-22.2
Cc1ccc(C(=O)c2ccc(N3CCOCC3)c(F)c2)cc1
-22
O=C(Cc1nnc(NC(=O)Nc2ccccc2F)s1)NCc1ccccc1
8.98
O=C(CSc1nnc(Cn2cnc3ccccc32)o1)c1ccccc1
-7.21
O=C(N/C(=C\c1cccc([N+](=O)[O-])c1)C(=O)N1CCCCC1)c1cccs1
7.93
Fc1ccccc1NC(=S)Nc1cccc2cnccc12
46.8
O=C(Nc1cccc(S(=O)(=O)N2CCCC2)c1)c1ccccc1OC(F)F
-13.7
CN1CCN(C(=O)/C(=C/c2cccc([N+](=O)[O-])c2)NC(=O)c2ccccc2)CC1
-72.6
O=C(O)/C=C/c1cnc2ccccc2n1
16.6
O=C(Nc1cc(Cl)cc(Cl)c1)c1cccc(OC(F)F)c1
-2.79

As a next step, examine the compound that follows.
Field request: hERG current change (%, negative = inhibition) at 10uM | item: O=C(O)CCCC(=O)OCCCCc1cccs1
-2.23

The origin of these recorded values is paper PMC4336329.
